log10 LED values by entry
MEASURED_TARGET: Geranylgeranyl pyrophosphate synthase (Homo sapiens)
Sequence (O95749 whole entry): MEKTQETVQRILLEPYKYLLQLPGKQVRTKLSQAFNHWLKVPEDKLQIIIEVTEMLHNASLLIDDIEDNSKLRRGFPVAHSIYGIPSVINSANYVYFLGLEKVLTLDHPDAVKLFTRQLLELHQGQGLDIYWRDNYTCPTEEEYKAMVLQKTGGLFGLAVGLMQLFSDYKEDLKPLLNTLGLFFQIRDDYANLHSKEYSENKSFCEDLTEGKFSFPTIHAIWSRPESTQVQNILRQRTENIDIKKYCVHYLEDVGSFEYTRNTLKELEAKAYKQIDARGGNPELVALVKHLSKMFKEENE
PROCEDURE_TEXT: Inhibition of GGDPS in human RPMI-8226 cells assessed as lowest effective concentration required for increase in intracellular lambda chain level after 48 hrs by ELISA
Format: cell-based
The common logarithm of LED in µM is what is listed.

Item CC(C)=CCCC(C)=CCn1cc(C2CC2(P(=O)(O)O)P(=O)(O)O)nn1 (centres undefined) has what recorded log10 LED?
-0.30

====

log10 of IC50 values by entry
MEASURED_TARGET: UniProt O95749
PROCEDURE_TEXT: Inhibition of recombinant GGDPS (unknown origin) using [14C] IPP and FPP as substrate preincubated for 10 mins followed by substrate addition and measured after 30 mins by scintillation counting method
The common logarithm of IC50 in µM is what is listed.

| COMPOUND | MEASURED_TARGET | log10 of IC50 |
| --- | --- | --- |
| CC(C)=CCC/C(C)=C/CCn1cc(C2CC2(P(=O)([O-])[O-])P(=O)([O-])[O-])nn1.[Na+].[Na+].[Na+].[Na+] (stereo not given) | UniProt O95749 | -0.05 |
| CC(C)=CCCC(C)=CCn1cc(C2OC2(P(=O)(O)O)P(=O)(O)O)nn1 (stereo not given) | UniProt O95749 | 1.04 |
| CC(C)=CCC/C(C)=C/CCn1cc(C=C(P(=O)(O)O)P(=O)(O)O)nn1 | UniProt O95749 | -0.40 |

Item CC(C)=CCC/C(C)=C\CCn1cc(C2OC2(P(=O)(O)O)P(=O)(O)O)nn1 (stereo not given) has what recorded log10 of IC50?
0.37

Same question for CC(C)=CCC/C(C)=C/CCn1cc(C2OC2(P(=O)(O)O)P(=O)(O)O)nn1 (stereo not given) please.
-0.35

Same question for CC(C)=CCC/C(C)=C\CCn1cc(C=C(P(=O)(O)O)P(=O)(O)O)nn1 please.
-0.43

Same question for CC(C)=CCCC(C)CCCn1cc(CC(P(=O)(O)O)P(=O)(O)O)nn1 (stereo not given) please.
1.40

Same question for CC(C)=CCC/C(C)=C\CCn1cc(C2CC2(P(=O)([O-])[O-])P(=O)([O-])[O-])nn1.[Na+].[Na+].[Na+].[Na+] (stereo not given) please.
0.46
